These entries and their values trace back to patent US20240279318A1.

target: T1, AFP158/HLA-A*02:01 complex (human); assay: SPR, KD ratio to AS170036 VL1VH1;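 also: crude scFv captured on a sensor chip, peptide–HLA complex passed over at several concentrations, association then buffer dissociation, KD derived from on- and off-rates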
T1 construct: flowed over the chip in SPR; also called AFP158 pro
Parameter Affinity increase: see the listing below.
Only the number, expressed in fold, is required.

HP110D (scFv, AS170036 VL1VH1 scFv mutein) scFv: QSALTQPRSVSGSPGQSVTISCAGTSSDVGSENYVSWYQQHPGKAPKLMIYQVNKRASGVPDRFSGSKSGNTASLTISGLQAEDEADYYCASYRSSDHNIVFGGGTKLTVLGGGGSGGGGSGGGGSEVQLVESGGGLVQPGGSLRLSCAASGFTFSSYAMSWVRQAPGKGLEWVSTINSGTGSPYYADSVKGRFTISRDNSKNTLYLQMNSLRAEDTAVYYCAKNFFDGSWFLGPDAMDYWGQGTLVTVSSHHHHHH | 0.5
HS57W (scFv, AS170036 VL1VH1 scFv mutein) scFv: QSALTQPRSVSGSPGQSVTISCAGTSSDVGSENYVSWYQQHPGKAPKLMIYQVNKRASGVPDRFSGSKSGNTASLTISGLQAEDEADYYCASYRSSDHNIVFGGGTKLTVLGGGGSGGGGSGGGGSEVQLVESGGGLVQPGGSLRLSCAASGFTFSSYAMSWVRQAPGKGLEWVSTINSGTGWPYYADSVKGRFTISRDNSKNTLYLQMNSLRAEDTAVYYCAKNFFDGSWFLGPPAMDYWGQGTLVTVSSHHHHHH | 0.6
HG108N (scFv, AS170036 VL1VH1 scFv mutein; also called AS170036 VL1VH1-VHG108N) scFv: QSALTQPRSVSGSPGQSVTISCAGTSSDVGSENYVSWYQQHPGKAPKLMIYQVNKRASGVPDRFSGSKSGNTASLTISGLQAEDEADYYCASYRSSDHNIVFGGGTKLTVLGGGGSGGGGSGGGGSEVQLVESGGGLVQPGGSLRLSCAASGFTFSSYAMSWVRQAPGKGLEWVSTINSGTGSPYYADSVKGRFTISRDNSKNTLYLQMNSLRAEDTAVYYCAKNFFDGSWFLNPPAMDYWGQGTLVTVSSHHHHHH | 2
HP58G (scFv, AS170036 VL1VH1 scFv mutein) scFv: QSALTQPRSVSGSPGQSVTISCAGTSSDVGSENYVSWYQQHPGKAPKLMIYQVNKRASGVPDRFSGSKSGNTASLTISGLQAEDEADYYCASYRSSDHNIVFGGGTKLTVLGGGGSGGGGSGGGGSEVQLVESGGGLVQPGGSLRLSCAASGFTFSSYAMSWVRQAPGKGLEWVSTINSGTGSGYYADSVKGRFTISRDNSKNTLYLQMNSLRAEDTAVYYCAKNFFDGSWFLGPPAMDYWGQGTLVTVSSHHHHHH | 0.9

Form: binder = HP110E (scFv, AS170036 VL1VH1 scFv mutein) scFv: QSALTQPRSVSGSPGQSVTISCAGTSSDVGSENYVSWYQQHPGKAPKLMIYQVNKRASGVPDRFSGSKSGNTASLTISGLQAEDEADYYCASYRSSDHNIVFGGGTKLTVLGGGGSGGGGSGGGGSEVQLVESGGGLVQPGGSLRLSCAASGFTFSSYAMSWVRQAPGKGLEWVSTINSGTGSPYYADSVKGRFTISRDNSKNTLYLQMNSLRAEDTAVYYCAKNFFDGSWFLGPEAMDYWGQGTLVTVSSHHHHHH ; Affinity increase = 1.8
